test details: Local anaesthetic activity in rat sciatic nerve assessed as time required to decrease compound action potential to 50 % relative to Lidocaine
Assay type: functional
Set-up: scale not given: the % may be the effect or the level left
property measured: Activity (%)
Use % as the unit, but write only the number.

Fill in: Activity of `O=C(CN1CCCC1)Nc1nsc2ccccc12` is ___
62.8

Next entry: CCCNC(C)C(=O)Nc1nsc2ccccc12 (configuration not stated)
31.4

Next entry: CNC(C)C(=O)Nc1nsc2ccccc12 (configuration not stated)
24.5

Next entry: CCN(CC)C(C)C(=O)Nc1nsc2ccccc12 (configuration not stated)
49.8

Next entry: `O=C(CN1CCCCC1)Nc1nsc2ccccc12`
44.9

Next entry: `O=C(CCN1CCCC1)Nc1nsc2ccccc12`
31.4

Next entry: `CNCCC(=O)Nc1nsc2ccccc12`
29.2

---

test details: Local anaesthetic activity in rat sciatic nerve assessed as time required to decrease compound action potential to 100 %
Type: functional
Entries are grouped by IT100 into these classes: c1 (below 20 min), c2 (20 min to below 30 min), c3 (30 min or more)

* CCCNC(C)C(=O)Nc1nsc2ccc(C)cc12 (stereo not given) | c1
* O=C(CCN1CCOCC1)Nc1nsc2ccccc12 | c1
* CC(C(=O)Nc1nsc2ccccc12)N(C)C (stereo not given) | c1
* O=C(CN1CCCCC1)Nc1nsc2ccccc12 | c1
* CNC(C)C(=O)Nc1nsc2ccccc12 (stereo not given) | c2

Into which category would you place Cc1ccc2snc(NC(=O)C(C)N(C)C)c2c1 (stereo not given) ?
c2

Next entry: `CC1CCN(CC(=O)Nc2nsc3ccccc23)CC1`
c3

Next entry: CC(C(=O)Nc1nsc2ccccc12)N1CCCCC1 (stereo not given)
c2

Next entry: `CCCNCC(=O)Nc1nsc2ccccc12`
c1

Next entry: CC(NC1CCCCC1)C(=O)Nc1nsc2ccccc12 (stereo not given)
c2

Next entry: CCN(CC)CC(=O)Nc1c(C)cccc1C [LIDOCAINE]
c1

Next entry: Cc1ccc2snc(NC(=O)C(C)N3CCCCC3)c2c1 (stereo not given)
c3

Next entry: `CNCC(=O)Nc1nsc2ccccc12`
c3

Next entry: CCNC(C)C(=O)Nc1nsc2ccc(C)cc12 (stereo not given)
c1

Next entry: `O=C(CN1CCOCC1)Nc1nsc2ccccc12`
c1

Next entry: Cc1ccc2snc(NC(=O)C(C)NC3CCCCC3)c2c1 (stereo not given)
c3

Next entry: CCN(CC)C(C)C(=O)Nc1nsc2ccccc12 (stereo not given)
c1

---

test details: Local anaesthetic activity in rat sciatic nerve assessed as time required to decrease compound action potential to 100 %
Format: functional
property measured: IT100

Consider the worked cases shown below.
- Cc1ccc2snc(NC(=O)C(C)N3CCOCC3)c2c1 (stereo not drawn): 20 min
- O=C(CCN1CCCC1)Nc1nsc2ccccc12: 20.4 min

Next:
Fill in: IT100 of `CC(C)NCC(=O)Nc1nsc2ccccc12` is ___
30.2 min
